- assay system: GDP-loaded KRAS G12D (Homo sapiens (Human), UniProt P01116, G12D)
- Sequence (P01116-2 other isoform, or with tags, fused parts or gaps G12D): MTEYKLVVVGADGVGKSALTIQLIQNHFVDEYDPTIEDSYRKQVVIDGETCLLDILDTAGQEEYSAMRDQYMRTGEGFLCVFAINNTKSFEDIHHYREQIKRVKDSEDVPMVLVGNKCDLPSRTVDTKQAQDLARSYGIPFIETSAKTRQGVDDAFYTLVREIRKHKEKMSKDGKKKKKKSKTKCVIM
- protocol description: KRAS G12D (GDP) biochemical assay (TR-FRET probe displacement)
- recorded conditions: 2 hours

{"columns": ["molecule", "assay system", "measure unit", "IC50"],
 "data": [
  ["C#Cc1c(F)ccc2cc(O)cc(-c3nc4c5c(nc(OC[C@@]67CCCN6C[C@@H](OC(C(F)(F)F)(C(F)(F)F)C(F)(F)F)C7)nc5c3F)N3C[C@H]5CC[C@H](N5)[C@H]3CC4)c12 (stereo in doubt)", "GDP-loaded KRAS G12D (Homo sapiens (Human), UniProt P01116, G12D)", "pM", 500],
  ["C#Cc1c(F)ccc2cc(O)cc(-c3nc4c5c(nc(OC[C@@]67CCCN6C[C@H](F)C7)nc5c3F)N3C[C@H]5CC[C@H](N5)C3C[C@H]4C)c12 (stereo in doubt)", "GDP-loaded KRAS G12D (Homo sapiens (Human), UniProt P01116, G12D)", "pM", 300],
  ["C#Cc1c(F)ccc2cc(O)cc(-c3nc4c5c(nc(OCC6(CN7CCC(F)CC7)CC6)nc5c3F)N3C[C@H]5CC[C@H](N5)[C@H]3CC4)c12", "GDP-loaded KRAS G12D (Homo sapiens (Human), UniProt P01116, G12D)", "pM", 50],
  ["Oc1cc(-c2nc3c4c(nc(OC[C@@]56CCCN5C[C@H](F)C6)nc4c2F)N2C[C@H]4CC[C@H](N4)[C@H]2CO3)c2c(F)c(F)c(F)c(F)c2c1", "GDP-loaded KRAS G12D (Homo sapiens (Human), UniProt P01116, G12D)", "pM", 6000],
  ["C#Cc1c(F)ccc2cc(O)cc(-c3nc4c5c(nc(OC[C@@]67CCCN6C[C@H](F)C7)nc5c3F)N3C[C@H]5CC[C@H](N5)[C@@H]3[C@H](CC)C4)c12", "GDP-loaded KRAS G12D (Homo sapiens (Human), UniProt P01116, G12D)", "pM", 100000]
]}

====

- Tested on: GP2D (KRAS G12D) cells
- protocol description: 2D cell viability assay (CellTiter-Glo)
- Format: cell-based
- recorded conditions: GP2d, 96 h, 4 days
pEC50: −log10 of the molar value.
// Not fulfilled strictly below 8 in pEC50; Fulfilled otherwise

{"columns": ["molecule", "answer label"],
 "data": [
  ["C#Cc1c(F)ccc2cccc(-c3nc4c5c(nc(OC[C@@]67CCCN6[C@H](CF)CC7)nc5c3F)N3C[C@H]5CC[C@H](N5)[C@H]3CC[C@H]4C)c12 [Example 195]", "Fulfilled"],
  ["C#Cc1c(F)ccc2cccc(-c3nc4c5c(nc(OC[C@@]67CCCN6[C@H](COc6cnnc(C(F)(F)F)c6)CC7)nc5c3F)N3C[C@H]5CC[C@H](N5)[C@H]3CCC4)c12 [Example 199]", "Fulfilled"],
  ["C#Cc1c(F)ccc2cc(O)cc(-c3nc4c5c(nc(OC[C@@]67CCCN6[C@H](COCC(F)(F)F)CC7)nc5c3F)N3C[C@H]5CC[C@H](N5)[C@H]3CC4)c12 [Example 163]", "Fulfilled"],
  ["Fc1ccc2cccc(-c3nc4c5c(nc(OCC6(CN7CC[C@H](OC(F)(F)F)C7)CC6)nc5c3F)N3C[C@H]5CC[C@H](N5)[C@H]3CC4)c2c1OC(F)(F)F [Example 125]", "Not fulfilled"],
  ["C#Cc1c(F)ccc2cc(O)cc(-c3nc4c5c(nc(OCC6(CN7CCC(F)CC7)CC6)nc5c3F)N3C[C@H]5CC[C@H](N5)[C@H]3CO4)c12 [Example 32]", "Fulfilled"]
]}

====

- Test system: GP2D (KRAS G12D) cells
- protocol description: 2D cell viability assay (CellTiter-Glo)
- Format: cell-based
- recorded conditions: GP2d, 96 h, 4 days
test readout: log10 of EC50 (log10 of the value in nM)

{"columns": ["compound", "meas value"],
 "data": [
  ["Oc1cc(-c2nc3c4c(nc(OC[C@@]56CCCN5C[C@H](F)C6)nc4c2F)N2C[C@H]4CC[C@H](N4)[C@H]2CO3)c2c(F)cccc2c1 [Example 5]", 2.40],
  ["Oc1cc(-c2nc3c4c(nc(OC[C@@]56CCCN5C[C@H](F)C6)nc4c2F)N2CC4CCC(N4)[C@@H]2CO3)c2ccccc2c1 (stereo in doubt) [Example 21]", 3.49],
  ["C#Cc1c(F)ccc2cccc(-c3nc4c5c(nc(OC[C@@]67CCCN6C[C@H](F)C7)nc5c3F)N3C[C@H]5CC[C@H](N5)[C@H]3C[C@H]4CC)c12 [Example 182]", 1.94],
  ["C#Cc1c(F)ccc2cccc(-c3nc4c5c(nc(OC[C@@]67CCCN6C[C@H](F)C7)nc5c3F)N3C[C@H]5CC[C@H](N5)[C@@H]3CC4)c12 [Example 170]", 2.00],
  ["C#Cc1c(F)ccc2cccc(-c3nc4c5c(nc(OC[C@@]67CCCN6C[C@@H](OC(F)(F)F)C7)nc5c3F)N3C[C@H]5CC[C@H](N5)[C@H]3CC4)c12 (stereo in doubt) [Example 140]", 1.88],
  ["C#Cc1c(F)ccc2cccc(-c3nc4c5c(nc(OC[C@@]67CCCN6C[C@H](F)C7)nc5c3F)N3C[C@H]5CC[C@H](N5)[C@H]3[C@H](CC)O4)c12 [Example 169]", 1.42]
]}

====

As shown below, each of these compounds has a reported EC50 value.
- Tested on: GP2D (KRAS G12D) cells
- protocol description: 2D cell viability assay (CellTiter-Glo)
- Type: cell-based
- recorded conditions: GP2d, 96 h, 4 days

{"columns": ["smiles structure", "EC50"],
 "data": [
  ["Oc1cc(-c2nc3c4c(nc(OC[C@@]56CCCN5C[C@H](F)C6)nc4c2F)N2C[C@H]4CC[C@H](N4)[C@H]2CO3)c2c(F)c(F)c(F)c(F)c2c1", "130 nM"],
  ["C#Cc1c(F)ccc2cc(O)cc(-c3nc4c5c(nc(OC[C@@]67CCCN6C[C@H](F)C7)nc5c3F)N3C[C@H]5CC[C@H](N5)[C@@H]3CC4)c12", "1.1 nM"],
  ["C#Cc1c(F)ccc2cccc(-c3nc4c5c(nc(OC[C@@]67CCCN6C[C@H](F)C7)nc5c3F)N3C[C@H]5CC[C@H](N5)[C@H]3C[C@@H]4F)c12", "65.3 nM"]
]}

====

- assay system: GDP-loaded KRAS G12D (Homo sapiens (Human), UniProt P01116, G12D)
- protocol description: KRAS G12D (GDP) biochemical assay (TR-FRET probe displacement)
- recorded conditions: 2 hours
pIC50: −log10 of the molar value.
As shown below, each of these compounds has a reported pIC50 value.
test readout: pIC50

{"columns": ["compound", "assay system", "reported relation", "meas value"],
 "data": [
  ["C#Cc1c(F)ccc2cccc(-c3nc4c5c(nc(OC[C@@]67CCCN6[C@H](COc6cc(C(F)(F)F)ncn6)CC7)nc5c3F)N3C[C@H]5CC[C@H](N5)[C@H]3CC[C@H]4C)c12 [Example 203]", "GDP-loaded KRAS G12D (Homo sapiens (Human), UniProt P01116, G12D)", "=", 9.92],
  ["Oc1cc(-c2nc3c4c(nc(OC[C@@]56CCCN5C[C@H](F)C6)nc4c2F)N2C[C@H]4CC[C@H](N4)[C@H]2CO3)c2ccccc2c1 [Example 20]", "GDP-loaded KRAS G12D (Homo sapiens (Human), UniProt P01116, G12D)", "=", 8.15],
  ["C#Cc1c(F)ccc2cc(O)cc(-c3nc4c5c(nc(OC[C@@]67CCCN6[C@H](COC(C6CC6)C(F)(F)F)CC7)nc5c3F)N3C[C@H]5CC[C@H](N5)[C@H]3CC4)c12 (some centres unmarked) [Example 147]", "GDP-loaded KRAS G12D (Homo sapiens (Human), UniProt P01116, G12D)", ">", 10.00],
  ["C#Cc1c(F)ccc2cc(O)cc(-c3nc4c5c(nc(OCC6(CN7CCC(C(F)(F)F)CC7)CC6)nc5c3F)N3C[C@H]5CC[C@H](N5)[C@H]3CC4)c12 [Example 69]", "GDP-loaded KRAS G12D (Homo sapiens (Human), UniProt P01116, G12D)", "=", 10.00],
  ["C#Cc1c(F)ccc2cc(O)cc(-c3nc4c5c(nc(OCC6(CN7CCOCC7)CC6)nc5c3F)N3C[C@H]5CC[C@H](N5)[C@H]3CO4)c12 [Example 28]", "GDP-loaded KRAS G12D (Homo sapiens (Human), UniProt P01116, G12D)", "=", 9.22]
]}

====

- Tested on: GP2D (KRAS G12D) cells
- protocol description: 2D cell viability assay (CellTiter-Glo)
- Assay type: cell-based
- recorded conditions: GP2d, 96 h, 4 days
true (1) if EC50 is below 2 nM. false (0) if not; exact matches included in false (0).

{"columns": ["compound", "answer label"],
 "data": [
  ["C#Cc1c(F)ccc2cc(O)cc(-c3nc4c5c(nc(OC[C@@]67CCCN6C[C@@]6(CC6(F)F)C7)nc5c3F)N3C[C@H]5CC[C@H](N5)[C@H]3CC4)c12", "true (1)"],
  ["C#Cc1c(F)ccc2cc(O)cc(-c3nc4c5c(nc(OC[C@@]67CCCN6[C@H](CF)CC7)nc5c3F)N3C[C@H]5CC[C@H](N5)[C@H]3CC4)c12", "true (1)"],
  ["C#Cc1c(F)ccc2cc(O)cc(-c3nc4c5c(nc(OC[C@@]67CCCN6[C@H](COC(C(F)(F)F)(C(F)(F)F)C(F)(F)F)CC7)nc5c3F)N3C[C@H]5CC[C@H](N5)[C@H]3CCC4)c12", "true (1)"],
  ["C#Cc1c(F)ccc2cc(O)cc(-c3nc4c5c(nc(OC[C@@]67CCCN6C[C@H](F)C7)nc5c3F)N3C[C@H]5CC[C@H](N5)[C@@H]3[C@@H](C)[C@H]4C)c12", "true (1)"],
  ["Oc1cc(-c2nc3c4c(nc(OC[C@@]56CCCN5C[C@H](F)C6)nc4c2F)N2C[C@H]4CC[C@H](N4)[C@H]2CO3)c2c(Cl)cccc2c1", "false (0)"],
  ["C#Cc1c(F)ccc2cc(O)cc(-c3nc4c5c(nc(OC[C@@]67CCCN6CC(OC(F)(F)F)C7)nc5c3F)N3C[C@H]5CC[C@H](N5)[C@H]3CC4)c12 (some centres unmarked)", "true (1)"],
  ["C#Cc1c(F)ccc2cccc(-c3nc4c5c(nc(OCC6(CN7CCC(C(F)(F)F)CC7)CC6)nc5c3F)N3C[C@H]5CC[C@H](N5)[C@@H]3[C@@H](C)C4)c12", "false (0)"],
  ["C#Cc1c(F)ccc2cc(O)cc(-c3nc4c5c(nc(OC[C@@]67CCCN6C[C@@H](OC(C(F)(F)F)(C(F)(F)F)C(F)(F)F)C7)nc5c3F)N3C[C@H]5CC[C@H](N5)[C@H]3CC4)c12 (stereo in doubt)", "false (0)"],
  ["Oc1cc(-c2nc3c4c(nc(OC[C@@]56CCCN5C[C@H](F)C6)nc4c2F)N2C[C@H]4CC[C@H](N4)[C@H]2CO3)c2c(F)c(Cl)ccc2c1", "false (0)"],
  ["C#Cc1c(F)ccc2cccc(-c3nc4c5c(nc(OC[C@@]67CCCN6[C@H](COc6cc(C(F)(F)F)ncn6)CC7)nc5c3F)N3C[C@H]5CC[C@H](N5)[C@H]3CCC4)c12", "true (1)"],
  ["C#Cc1c(F)ccc2cc(O)cc(-c3nc4c5c(nc(OCC6(CN7CC8CC(C8)C7)CC6)nc5c3F)N3C[C@H]5CC[C@H](N5)[C@H]3CC4)c12", "true (1)"],
  ["C[C@H]1C[C@@H]2[C@@H]3CC[C@H](CN2c2nc(OC[C@@]45CCCN4C[C@H](F)C5)nc4c(F)c(-c5cc(O)cc6ccc(F)c(F)c56)nc1c24)N3", "false (0)"],
  ["C#Cc1c(F)ccc2cccc(-c3nc4c5c(nc(OC[C@@]67CCCN6[C@H](COC(C)(C(F)(F)F)C(F)(F)F)CC7)nc5c3F)N3C[C@H]5CC[C@H](N5)[C@H]3CCC4)c12", "false (0)"],
  ["C#Cc1c(F)ccc2cccc(-c3nc4c5c(nc(OCC6(CN7CC[C@H](OC(F)(F)F)C7)CC6)nc5c3F)N3C[C@H]5CC[C@H](N5)[C@H]3CCC4)c12", "false (0)"],
  ["C#Cc1c(F)ccc2cc(O)cc(-c3nc4c5c(nc(OC[C@@]67CCCN6C[C@H](F)C7)nc5c3F)N3C[C@H]5CC[C@H](N5)C3C[C@H]4C)c12 (stereo in doubt)", "true (1)"],
  ["Oc1cc(-c2nc3c4c(nc(OC[C@@]56CCCN5C[C@H](F)C6)nc4c2F)N2C[C@H]4CC[C@H](N4)[C@H]2CC3)c2c(F)c(F)ccc2c1", "false (0)"],
  ["C#Cc1c(F)ccc2cc(O)cc(-c3nc4c5c(nc(OC[C@]67CCCN6C[C@@H](OC(F)(F)F)C7)nc5c3F)N3C[C@H]5CC[C@H](N5)[C@H]3CC4)c12 (stereo in doubt)", "true (1)"],
  ["C#Cc1c(F)ccc2cc(O)cc(-c3nc4c5c(nc(OCC6(CN7CCC(OC(F)(F)F)CC7)CC6)nc5c3F)N3C[C@H]5CC[C@H](N5)[C@H]3CCC4)c12", "true (1)"],
  ["Fc1ccc(-c2nc3c4c(nc(OC[C@@]56CCCN5C[C@H](F)C6)nc4c2F)N2C[C@H]4CC[C@H](N4)[C@H]2CO3)c2ccccc12", "false (0)"],
  ["C#Cc1c(F)ccc2cccc(-c3nc4c5c(nc(OC[C@@]67CCCN6[C@H](COc6ccnc(C(F)(F)F)n6)CC7)nc5c3F)N3C[C@H]5CC[C@H](N5)[C@H]3CC4)c12", "false (0)"]
]}

// data source = patent US20230339981A1
